subjectOfTest: Prothrombin (Homo sapiens)
assayName: In vitro inhibitory activity against human thrombin
# pIC50 per record follows
Conceptually, pIC50 converts a concentration in mol/L into minus its log10.

Reference set (4 entries):
compound	pIC50
CN1CCc2nc(C(=O)N3CCN(S(=O)(=O)c4ccc5cc(Cl)ccc5c4)CC3C(=O)N(C)C)sc2C1 (stereo not given)	5.22
CN1CCc2nc(C(=O)N3CCN(S(=O)(=O)c4ccc5cc(Cl)ccc5c4)CC3C(N)=O)sc2C1 (stereo not given)	6.00
O=C(c1nc2c(s1)CNCC2)N1CCN(S(=O)(=O)c2ccc3cc(Cl)ccc3c2)CC1	5.54
CN1CCc2nc(C(=O)N3CCN(S(=O)(=O)c4ccc5cc(Cl)ccc5c4)CC3)sc2C1	6.25

API: the following record is the query input.
Prompt line: Suppose we examine the compound CC(C)NC(=O)C1CN(S(=O)(=O)c2ccc3cc(Cl)ccc3c2)CCN1C(=O)c1nc2c(s1)CN(C)CC2 (stereo not given) ; what pIC50 value has been reported?
Response line: 6.09

Origin of values: ChEMBL document CHEMBL1146768
